- test_target: hAT1R (Homo sapiens, UniProt P30556)
- Sequence (P30556 1-359): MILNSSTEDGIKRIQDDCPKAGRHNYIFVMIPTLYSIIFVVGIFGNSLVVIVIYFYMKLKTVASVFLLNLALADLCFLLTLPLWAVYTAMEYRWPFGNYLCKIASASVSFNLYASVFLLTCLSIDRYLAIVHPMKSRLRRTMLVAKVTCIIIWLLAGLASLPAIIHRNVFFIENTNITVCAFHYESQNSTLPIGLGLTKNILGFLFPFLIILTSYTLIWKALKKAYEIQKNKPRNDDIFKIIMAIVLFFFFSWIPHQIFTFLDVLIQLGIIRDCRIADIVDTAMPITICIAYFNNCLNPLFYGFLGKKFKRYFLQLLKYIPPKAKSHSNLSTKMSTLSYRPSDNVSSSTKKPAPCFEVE
- assay_explanation: BRET β-arrestin2 biosensor assay, higher receptor expression (hAT1R 5 ng/well), HEK293 cells
- Format: cell-based
# cutoff 80% applies to BRET β-Arrestin2 High AT1R Expression Ymax (%); >= gives met, < gives not met

Consider the following illustrative entries.
# molecule, assigned_label
measured = [
    ("CCCCc1ncc(C(=O)NCCO)n1Cc1ccc(-c2cc(-c3ccccc3)ccc2C(=O)O)cc1 [Example 414]", "not met"),
    ("CCCc1nc(CC)c(C(=O)OCC)n1Cc1ccc(-c2cc(-c3ccccc3)ccc2-c2nn[nH]n2)cc1 [Example 395]", "met"),
    ("CCCCC1=NC2(CCCC2)C(=O)N1Cc1ccc(-c2cc(N3CCCC(C)(C)C3)ccc2-c2nn[nH]n2)cc1 [Example 102]", "not met"),
    ("CCCCOC(=O)NS(=O)(=O)c1sc(-c2ccccc2C(F)(F)F)cc1-c1ccc(Cn2c(CC)nc3c(C)cc(C)nc32)cc1 [Example 45]", "met"),
    ("CCCCC(=O)N(Cc1ccc(-c2cc(-c3ccccc3)ccc2-c2nn[nH]n2)cc1)C1(C(=O)O)Cc2ccccc2C1 [Example 279]", "met"),
    ("CCc1nc2c(C)cc(C)nc2n1Cc1ccc(-c2cc(Oc3cncnc3)ccc2-c2nnn[nH]2)cc1 [Example 258]", "not met"),
]

Entry CCCc1nc(CC)c(C(=O)O)n1Cc1ccc(-c2cc(-c3ccccc3)ccc2-c2nn[nH]n2)cc1 [Example 396] : is its BRET β-Arrestin2 High AT1R Expression Ymax (%) no less than 80%? met
